target.or.system: UniProt P56373
Sequence (P56373 whole entry): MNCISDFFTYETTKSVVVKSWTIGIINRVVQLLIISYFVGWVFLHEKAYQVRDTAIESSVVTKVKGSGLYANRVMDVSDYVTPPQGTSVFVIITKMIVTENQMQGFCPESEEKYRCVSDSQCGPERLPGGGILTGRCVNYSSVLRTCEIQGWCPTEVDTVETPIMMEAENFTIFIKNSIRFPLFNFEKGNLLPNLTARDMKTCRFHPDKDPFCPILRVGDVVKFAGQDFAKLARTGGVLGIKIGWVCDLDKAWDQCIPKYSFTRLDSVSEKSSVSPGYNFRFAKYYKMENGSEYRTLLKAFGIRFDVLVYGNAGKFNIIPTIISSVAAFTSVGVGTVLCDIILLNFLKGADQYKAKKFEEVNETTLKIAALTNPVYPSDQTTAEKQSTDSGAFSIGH
protocol: Evaluation of human P2X3 receptor inhibitory activity (Fluo-3 calcium fluorescence, FDSS 3000, ATP stimulation);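 also: stimulus was 50 nM ATP with fluorescence followed for 3 min, and the response per well was peak post-ATP fluorescence divided by the reading at measurement start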
Type: cell-based
condition.summary: human P2X3 receptor, Test Example 1
measured.attribute: pIC50
Scale for pIC50: -log10 of concentration given in mol/L; no unit attached.

Returns the measured pIC50 for the input molecule. Input: C=COc1ccc(/N=c2\[nH]c(=O)n(C[C@H](C)C(=O)O)c(=O)n2Cc2ccc(C)cc2)cc1Cl [Compound I-1549]
8.10

Returns the measured pIC50 for the input molecule. Input: CCOCc1ccc(/N=c2\[nH]c(=O)n(C[C@H](C)C(=O)OC)c(=O)n2Cc2ccc(C)cc2)cc1Cl [Compound I-1498]
7.66

Returns the measured pIC50 for the input molecule. Input: CCn1c(=O)[nH]/c(=N\c2ccc(Oc3cnc(C(=O)O)cn3)cc2)n(Cc2ccc(Cl)cc2)c1=O [Compound I-2296]
8.30

Returns the measured pIC50 for the input molecule. Input: CCn1c(=O)[nH]/c(=N\c2ccc(Oc3ccc(C(=O)OC)nn3)cc2)n(Cc2ccc(Cl)cc2)c1=O [Compound I-2269]
8.70

Returns the measured pIC50 for the input molecule. Input: CCn1c(=O)[nH]/c(=N\c2ccc(Oc3cccc(CO)n3)cc2)n(Cc2ccc(Cl)cc2)c1=O [Compound I-2639]
7.59

Returns the measured pIC50 for the input molecule. Input: CCn1c(=O)[nH]/c(=N\c2ccc(Oc3ccc(NC(C)=O)nc3)cc2)n(Cc2ccc(Cl)cc2)c1=O [Compound I-2241]
9.00

Returns the measured pIC50 for the input molecule. Input: CCCOc1ccc(/N=c2\[nH]c(=O)n([C@H](C)CC(=O)O)c(=O)n2Cc2ccc(C)cc2)cc1Cl [Compound I-0880]
7.31

Returns the measured pIC50 for the input molecule. Input: Cc1cc(Oc2ccc(/N=c3\[nH]c(=O)n(CC(CO)CO)c(=O)n3Cc3ccc(Cl)cc3)cc2)no1 [Compound I-2353]
8.10

Returns the measured pIC50 for the input molecule. Input: CC(C)Oc1ccc(/N=c2\[nH]c(=S)n(C(C)C)c(=O)n2Cc2ccc(Cl)cc2)cc1 [Compound I-2254]
7.11
